experiment: Inhibition of platelet aggregation using Adenosine diphosphate (ADP) as activating agent in rabbit platelet rich plasma (PRP)
measurementName: pEC50
pEC50 (log units): -log10 of the concentration in mol/L.

Completed entries (count: 5):
smilesNotation | pEC50
CCOC(=O)CN(C(=O)CCCOc1ccc2nc3[nH]c(=O)[nH]c3cc2c1)C1CCCCC1 | 7.70
O=c1[nH]c2cc3cc(OCCCS(=O)(=O)c4ccccc4)ccc3nc2[nH]1 | 6.41
CC(=O)CCCOc1ccc2nc3[nH]c(=O)[nH]c3cc2c1 | 5.85
CN(C(=O)CCCOc1ccc2nc3[nH]c(=O)n(C)c3cc2c1)C1CCCCC1 | 7.30
CC(=O)OCCCOc1ccc2nc3[nH]c(=O)[nH]c3cc2c1 | 6.48

IN: Would you kindly share the measured pEC50 for `O=C(CCCOc1ccc2nc3[nH]c(=O)[nH]c3cc2c1)NC1CCCC1` ?
OUT: 6.38

IN: Would you kindly share the measured pEC50 for `COC(=O)C=CC=Cc1ccc2nc3[nH]c(=O)[nH]c3cc2c1` ?
OUT: 5.57

IN: Would you kindly share the measured pEC50 for `Cn1c(=O)[nH]c2nc3ccc(OCCCS(=O)(=O)c4ccccc4)cc3cc21` ?
OUT: 4.30

IN: Would you kindly share the measured pEC50 for `O=C(O)CCCCCOc1ccc2nc3[nH]c(=O)[nH]c3cc2c1` ?
OUT: 5.50
